Molecular target: PAR2 (HT-29 cells, trypsin activation) (Homo sapiens, UniProt P55085)
Construct: host or cells: HT-29 cells
Sequence (P55085 26-397): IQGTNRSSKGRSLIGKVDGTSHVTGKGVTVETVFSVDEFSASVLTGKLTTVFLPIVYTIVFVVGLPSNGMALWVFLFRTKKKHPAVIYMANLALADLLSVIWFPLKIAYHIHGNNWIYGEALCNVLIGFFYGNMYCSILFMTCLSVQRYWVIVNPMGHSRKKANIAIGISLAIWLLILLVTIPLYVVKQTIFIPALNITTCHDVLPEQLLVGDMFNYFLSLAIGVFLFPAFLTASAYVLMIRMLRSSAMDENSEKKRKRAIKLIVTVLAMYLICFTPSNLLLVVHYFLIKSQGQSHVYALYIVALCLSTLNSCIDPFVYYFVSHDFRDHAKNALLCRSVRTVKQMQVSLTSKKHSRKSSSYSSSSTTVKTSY
Assay: Ca FLIPR TETRA assay, ANTAGONIST mode, stimulation with 3.1 U/mL trypsin
Type: cell-based
Settings: HT-29 cells, stimulation with 3.1 U/mL trypsin
Field: log10 of IC50. Provide a value for each of the molecules that follow.
Field: value | Transform: log10 | Quantity: IC50 | Unit: µM

Previously resolved entries follow.
Task item: Give the reported log10 of IC50 for CC(C)c1cc(-c2ccc(F)cc2)nn2cc(C(=O)N3CCN(C(=O)C4(N)CC4)[C@@H](C)C3)nc12 [Compound I-154] (system: PAR2 (HT-29 cells, trypsin activation) (Homo sapiens, UniProt P55085)).
Reply: 0.81

Task item: What log10 of IC50 appears in the records for this molecule with PAR2 (HT-29 cells, trypsin activation) (Homo sapiens, UniProt P55085)? CC(C)c1cc(C2=CCCCC2)nn2cc(C(=O)N3CCN(C(=O)C4(O)CCC4)CC3(C)C)nc12 [Compound I-40]
Reply: -0.43

Task item: Query log10 of IC50 on PAR2 (HT-29 cells, trypsin activation) (Homo sapiens, UniProt P55085) for CC(C)c1cc(-c2ccc(F)cc2)nn2cc(C(=O)N3CCN(C(=O)CCC(F)(F)F)[C@@H](C)C3)nc12 [Compound I-138]
Reply: -1.28

Task item: # returns recorded log10 of IC50 (system: PAR2 (HT-29 cells, trypsin activation) (Homo sapiens, UniProt P55085)) for COc1cccc(CC(=O)N2CCN(C(=O)c3cn4nc(-c5ccc(F)cc5)cc(C(C)C)c4n3)C[C@@H]2C)c1 [Compound I-132]
Reply: -2.30

Task item: Return log10 of IC50 measured with PAR2 (HT-29 cells, trypsin activation) (Homo sapiens, UniProt P55085) given this molecule: CC(C)c1cc(-c2ccc(F)cc2)nn2cc(C(=O)N3CCN(C(=O)CCC4CCC4)[C@@H](C)C3)nc12 [Compound I-144]
Reply: -2.30

---
Task item: Checklist item: log10 of IC50 tested on PAR2 (HT-29 cells, trypsin activation) (Homo sapiens, UniProt P55085), entry O=C(c1cn2nc(-c3ccc(F)cc3)cc(C(F)(F)F)c2n1)N1CCCCC1c1ccn[nH]1 (stereo not shown) [Compound I-78] , value?
Reply: 0.20

* * *

Target: PAR2 (HT-29 cells, trypsin activation) (Homo sapiens)
Construct: host or cells: HT-29 cells
Test: Ca FLIPR TETRA assay, ANTAGONIST mode, stimulation with 3.1 U/mL trypsin
Assay type: cell-based
Details: HT-29 cells, stimulation with 3.1 U/mL trypsin
So I've got a bunch of compounds here, and I need their IC50 values.
Give bare numbers, in nM.

Task item: Which measured IC50 value corresponds to CCc1cc(-c2ccc(F)cc2)nn2cc(C(=O)N3CCN(C(=O)[C@H](O)C(C)(C)C)[C@@H](C)C3)nc12 [Compound I-172] ?
Reply: 330

Task item: Reported IC50, compound CC(C)c1cc(-c2ccc(F)cc2)nn2cc(C(=O)N3CCN(C(=O)C4(NC(=O)OC(C)(C)C)CCCCC4)[C@@H](C)C3)nc12 [Compound I-150] : ____
Reply: 230

Task item: Look up IC50: CC(C)c1cc(-c2ccc(F)cc2)nn2cc(C(=O)N3CCN(C(=O)[C@H]4CCC(=O)N4)CC3(C)C)nc12 [Compound I-177]
Reply: 82

Task item: What measured IC50 goes with CC(C)c1cc(-c2ccc(F)cc2)nn2cc(C(=O)N3CCN(C(=O)CC4CCCC4)[C@@H](C)C3)nc12 [Compound I-121] ?
Reply: 7

Task item: Can you look up the measured IC50 of CC1(C)CN(C(=O)C2(O)CCOCC2)CCN1C(=O)c1cn2nc(-c3ccc(F)cc3)cc(C(F)(F)F)c2n1 [Compound I-38] for me?
Reply: 480

// next entry
Task item: For O=C(c1cn2nc(-c3ccc(F)cc3)cc(C(F)(F)F)c2n1)N1CCC(n2cc(-c3ccccc3)[nH]c2=O)CC1 [Compound I-80] , what is its reported IC50?
Reply: 82

The reported measurements were obtained from patent US20190119282A1.
